Reported viability values are given for each entry in this list.
Protocol Description: reducers of endogenous Her2 protein level, primary screen, SKBR3 breast tumor cells, AlphaScreen, ATP viability (AID 461);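 note: percent of carrier control wells set as 100% viability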
Condition Info: 18-24 h, measured here: SKBR3 viability, ATP luminescence, at 10 µM

{"columns": ["Compound", "Result Unit", "viability"],
 "data": [
  ["c1cncc(-c2nc3c4ccccc4nc(N4CCC(N5CCCCC5)CC4)n3n2)c1", "%", 93.5],
  ["CN1CCN(C(=O)C2(NC(=O)Nc3cccc(F)c3)CCCCC2)CC1", "%", 81],
  ["CCN(CC)c1nc2cc(OC)ccc2cc1C#N", "%", 104],
  ["CCCc1cc(-n2ccnc2)n2c(nc3ccccc32)c1C#N", "%", 89.5],
  ["CCCn1c(SCC(=O)Nc2cc(C)on2)nc2c1c(=O)n(C)c(=O)n2C", "%", 100],
  ["COc1ccc(CC(=O)NCc2cccs2)cc1", "%", 90],
  ["CCN(CC)S(=O)(=O)c1ccc(C(=O)N2CCN=C2SCc2cccnc2)cc1", "%", 82.5],
  ["Cc1c(NC(=O)c2ccc(COc3ccc4ccccc4c3)o2)c(=O)n(-c2ccccc2)n1C", "%", 88.5],
  ["Cc1ccc(S(=O)(=O)N2CCN(C(=O)CSc3nnnn3C)C2)cc1", "%", 110],
  ["CCCCOC(=O)C1=C(C)Nc2ncnn2C1c1cccc(OC)c1OC (centres undefined)", "%", 81.5],
  ["Cc1cc(C(=O)Nc2sc3c(c2C#N)CCCCC3)cs1", "%", 91.5],
  ["Cn1c(N2CCC(C(N)=O)CC2)nc2c1c(=O)n(Cc1ccc(Br)cc1)c(=O)n2C", "%", 95],
  ["CCC(C)(C)NC(=O)CN(C(=O)c1snc(C(N)=O)c1N)c1ccc2c(c1)OCO2", "%", 104],
  ["CCn1ncc(C2=NOC(C(=O)NCc3ccc(Cl)cc3)C2)c1C (centres undefined)", "%", 83.5],
  ["CCCOC(=O)/C(C(N)=NCc1ccccc1)=C(\\O)OCCC", "%", 82],
  ["O=C(CSc1nnc(SCc2ccc(Cl)cc2)s1)N1CCN(C(=O)c2ccco2)CC1", "%", 80.5],
  ["CCOCC(=O)Nc1nc2ccc(OC)cc2s1", "%", 107],
  ["COC(=O)c1[nH]c(C)c(/C(O)=C2\\C(=O)C(=O)N(CCN(C)C)C2c2ccccc2OC)c1C (centres undefined)", "%", 88],
  ["COC(=O)CN(c1ccc(F)cc1)S(=O)(=O)c1ccccc1", "%", 91.5],
  ["CSc1nc(N)nc(SCCS(=O)(=O)c2ccc(Cl)cc2)c1C#N", "%", 90.5],
  ["O=C(CSc1nc2cc(Cl)ccc2s1)N1CCN(C(=O)c2ccco2)CC1", "%", 91],
  ["Cc1ccc2c(c1)c1c(n2CC(O)Cn2c(C)nc3ccccc32)/C(=N\\O)CCC1 (centres undefined)", "%", 108],
  ["CC(C)CCNC(=O)C(c1ccco1)N(CC1CCCO1)C(=O)Cn1nnc2ccccc21 (centres undefined)", "%", 100],
  ["Cc1nc(-c2cccc(-c3noc(C)n3)c2)no1", "%", 87.5],
  ["C/C(N)=C(/C#N)C(=O)COC(=O)c1cc(S(=O)(=O)N2CCCCC2)ccc1C", "%", 88.5],
  ["Cc1nnc(SCC(=O)Nc2ccc3c(c2)OCCO3)n1CC1CCCO1 (centres undefined)", "%", 102],
  ["Nc1c(C(=O)NCc2ccco2)nnn1Cc1ccccc1", "%", 85.5],
  ["O=C(NC1CCCCC1)C(c1ccccc1)N(Cc1ccco1)C(=O)Cn1cnc2ccccc21 (centres undefined)", "%", 102],
  ["C=CCSc1nnc2n(-c3ccccc3OC)c(=O)c3c4c(sc3n12)CCC4", "%", 83.5],
  ["C#CC1(O)CC(C)N(C)C(C)C1 (centres undefined)", "%", 105],
  ["CC(C)=CCSc1nnc(CCNC(=O)OC(C)(C)C)o1", "%", 96],
  ["OCc1nc2ccccc2n1CCCOc1ccccc1", "%", 80.5],
  ["Cc1ccc2cc(C(c3nnnn3CC3CCCO3)N3CCc4ccccc4C3)c(=O)[nH]c2c1 (centres undefined)", "%", 87],
  ["CCOC(=O)Cc1csc(NC(=O)CSc2nnc(C(C)C)n2CC)n1", "%", 126],
  ["Cc1nc2c(c(=O)n1CC1CCCO1)c1nc3ccccc3nc1n2CC(C)C (centres undefined)", "%", 96.5],
  ["O=C(CSc1nnc2scc(-c3ccccc3)n12)Nc1nsc(-c2ccccc2)n1", "%", 82.5],
  ["Cc1ccc(CNC(=O)C2CCN(S(=O)(=O)c3cccs3)CC2)o1", "%", 138],
  ["CC(Oc1ccccc1)C(=O)Nc1ccc(S(=O)(=O)NCC2CCCO2)cc1 (centres undefined)", "%", 89.5],
  ["O=C(CSc1nc(O)cc(=O)n1-c1ccccc1)N1CCCCC1", "%", 100]
]}
